biological target: CDK9 (Homo sapiens, UniProt P50750); construct: endogenous in cells; host or cells: MDA-MB-231; test: CDK protein degradation activity (Western blotting), CDK9; assay type: cell-based; conditions: MDA-MB-231 cells, 1 μM, 16 hours, Western blot
Sequence (P50750 whole entry): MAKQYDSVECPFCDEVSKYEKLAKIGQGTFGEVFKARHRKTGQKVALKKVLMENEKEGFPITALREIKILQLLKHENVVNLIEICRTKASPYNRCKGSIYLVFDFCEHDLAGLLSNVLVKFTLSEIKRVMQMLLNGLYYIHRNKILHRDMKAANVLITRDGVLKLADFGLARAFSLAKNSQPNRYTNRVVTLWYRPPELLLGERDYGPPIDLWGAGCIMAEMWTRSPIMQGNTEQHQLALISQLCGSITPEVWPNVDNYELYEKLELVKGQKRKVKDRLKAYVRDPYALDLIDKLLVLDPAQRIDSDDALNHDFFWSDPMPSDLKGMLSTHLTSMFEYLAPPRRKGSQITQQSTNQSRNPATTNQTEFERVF
reported-endpoint: Enzyme degradation CDK9 (% remaining) @ 1 μM (%)

P: O=C1CC[C@H](N2C(=O)c3ccc(NCC(=O)N4CCN(CCCN5CCN(c6ccc(Nc7ncnc8c7ncn8C7CC(NC(=O)Cc8ccccc8)C7)cc6)CC5)CC4)cc3C2=O)C(=O)N1 (stereo partly drawn)
Q: Cc1cccc(C(=O)N[C@H]2C[C@@H](n3cnc4c(Nc5ccc(N6CCN(CC7CCN(C(=O)C8CCN(c9cc%10c(cc9F)C(=O)N([C@H]9CCC(=O)NC9=O)C%10=O)CC8)CC7)CC6)cc5)ncnc43)C2)n1
Between item P and item Q , which reported Enzyme degradation CDK9 (% remaining) @ 1 μM is smaller? Lab note: record the label of whichever item you select. P
